tested on: MS2 coat protein; assay: apparent KD of MS2 coat protein, switch OFF state (with FMN for OFF switches, without FMN for ON switches); designed switch direction (-1 OFF switch, 1 ON switch): -1; higher = weaker reporter binding; conditions: FMN input: 0 or 200 uM; Eterna round: R93 (includes R88 designs)
Attribute: apparent KD of MS2 coat protein
Entry rule: numbers only, all in nM.

Previously resolved entries follow.
AAAAAGUUAGGAUAUACAUGAGGAUCACCCAUGUACAUAUAUGGAGAAUAUAGCAGUAGUAGAAGGGACAAAAA [EX2 Malc#13]	34.8
AAAGGACGAGGAUAUACAUGAGGAUCACCCAUGUAAAAAACGUAAGAAAAGAAGUUAUGUAGAAGGCGUCCAAA [69%, Moding Meechl, 14]	20.6

Here is the next item to consider.
get_value(item= AUAAUGAGAGGAUAUACAUGAGGAUCACCCAUGUAAUUAAAAAGGAGAGAAACAAUACGUAGAAGGCUCAUUUA [JR_Exc003+Sub601] , readout=apparent KD of MS2 coat protein) returns 50.6

---

test system: MS2 coat protein; test: apparent KD of MS2 coat protein; higher = weaker reporter binding; settings: Eterna round: R107; input ligand: tryptophan 2.4 mM
Quick reference: apparent KD of MS2 coat protein of the listed items.
Form entry: value (µM) — number only.

Example sequences with recorded apparent KD of MS2 coat protein:
UUUGCACAUGAGGAUCACCCAUGUACAGAUACCAGCCUCAUCUACGGCCCUUGGCAGCUGAGACAAUGGUGACGUGAUGGGCUUU [Iserraxeso]	0.0118
AUAACACAUGAGGAUCACCCAUGUAAGGAUACCAGUUUCUGAUUAAACCCUUGGCAGCCUAGAGAUAGUCAUGUAAUAACGGCGA [theeternabot_sameState_MS2_Theo_A_19]	0.0122
AGCCACUCGAGUGAUCCUCACGAGUGGCAACGAGGACCGGUACGGCCGCCACUCGAAUCAACAUGAGGAUCACCCAUGUAAUAAU [Brourdmod01]	0.0977

GET /value?item= UUUUUCAUAGGUUAUAGUUAAGAAACUGAAGGAGCGUGGUAAUACACAGGUAGGUCGCAGAUUUUACAUGAGGAUCACCCAUGUU [JR_SSArginiA_Sub009] &field=apparent KD of MS2 coat protein returns 0.0364

Lab book: apparent KD of MS2 coat protein of AGCCAUGGAAACAUGGCGGCGGCAUGAGCGCGAGGACCGGUACGGCCGCCACUCGGGCGACAUGAGGAUCACCCAUGUUCCUCAU [ETA NP+V+V2 #22 Same Structure] noted as 0.422

What the record says about UCACGACGCAUGGAUACCAGCGACAUGAGGAUCACCCAUGUAUGAGGAUCAGCCAUGUUAUGCCCUUGGCAGCCACGAAGGUCAU [KNKMULLIN] : apparent KD of MS2 coat protein is 0.0158

---

Listed below: apparent KD of MS2 coat protein values for each entry.
system: MS2 coat protein; experiment: apparent KD of MS2 coat protein; designed switch direction (-1 OFF switch, 1 ON switch): 1; higher = weaker reporter binding; details: input ligand: FMN 200 uM
Express it in nM; write the number only.

Sample answers from the record:
GGACGUCAUCUCACUGAUUAAACAUGAGGAUCACCCAUGUCACAGGAUAUGAGUCCGAUUAGGACUCAGAAGGGUGUGACGUCC [Fiskers NG3ss - 45] (Eterna round: R96, puzzle: Same State NG 3)	20.7
UAUCCAUAGAUAGGAUAUCAGUAUACAUGAGGAUCACCCAUGUUAUAUUUGGUUUUAAUUUAGUCUGAGAAGGAUCUUGAUGAA [SameState NG2 #2] (Eterna round: R96, puzzle: Same State NG 2)	14.7
UGAACCGUCACAGGAUAUCAUGCGAAAAUUGCGUGAGAAGGGUGGAUGUUGUGUUCAAAGAUGUACAUGAGGAUCACCCAUGUU [SameState NG1 #47] (Eterna round: R96, puzzle: Same State NG 1)	61

Attention now shifts to the item below.
# apparent KD of MS2 coat protein (sequence: ACAUGAGACGGAGGAUAUGUUGUACCUACAUGUGACAUGAGGAUCACCCAUGUGGUAAGUAUGAUACAGAAGGCCGAGAUAUGU [Equivalance 58 - Jieux - Same State NG 2] (Eterna round: R96, puzzle: Same State NG 2) ) is 13.6

The values you see were collected from the supplement of paper PMC9170038.
